From: patent US9850283B2

- system under test: LK35.2-hPD-L1 cells / PE-labeled PD-1-Ig (Homo sapiens)
- Construct: expressed in transfected cells; host or cells: LK35.2 mouse B cell line
- Sequence (Q9NZQ7 19-290): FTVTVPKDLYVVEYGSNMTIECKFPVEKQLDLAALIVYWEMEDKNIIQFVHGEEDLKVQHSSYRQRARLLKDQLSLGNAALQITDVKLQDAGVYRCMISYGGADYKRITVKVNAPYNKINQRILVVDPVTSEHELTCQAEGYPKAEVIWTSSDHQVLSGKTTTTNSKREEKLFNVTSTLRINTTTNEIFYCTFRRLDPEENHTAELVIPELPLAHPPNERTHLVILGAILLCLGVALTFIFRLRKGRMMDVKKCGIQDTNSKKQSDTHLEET
- assay comment: LK35.2-hPD-L1 cell binding high-content screening assay
- Type: cell-based
- measurement parameters: cluster symbol; cell line of CBA not given (LK35.2-hPD-L1 or 293T-hPD-L1); read-out: CBA IC50 cluster
pIC50: −log10 of the molar value. Positions of bridges follow the written chain, without caps; N, C: chain ends. Non-standard residues stand in square brackets, D forms with d. Residues, ends and D or L forms follow the SMILES beside them. NMeNle = CCCC[C@H](NC)C(=O)O; NMeA = CN[C@@H](C)C(=O)O; Sar = CNCC(=O)O
Catalogue of pIC50 readings, one per entry.

>>> measured_value("CCCC[C@H]1C(=O)N(C)[C@@H](CCCC)C(=O)N[C@@H](CCCNC(=N)N)C(=O)N[C@H](C(=O)NCC(N)=O)CSCC(=O)N[C@@H](Cc2ccccc2)C(=O)N(C)[C@@H](C)C(=O)N[C@@H](CC(N)=O)C(=O)N2CCC[C@H]2C(=O)N[C@@H](Cc2cnc[nH]2)C(=O)N[C@@H](CC(C)C)C(=O)N(C)CC(=O)N[C@@H](Cc2c[nH]cn2)C(=O)N[C@@H](CO)C(=O)N[C@@H](Cc2c[nH]c3ccccc23)C(=O)N1C [Example 1073] ({CH2CO}-F[NMeA]NPHL[Sar]HSW[NMeNle][NMeNle]RCG-NH2; thioether N-14)")
"< 7.13"

Could you now consider this next molecule?
**Q:** Which pIC50 value belongs to CCCC[C@H]1C(=O)N(C)[C@@H](CCCC)C(=O)N[C@@H](CCCNC(=N)N)C(=O)N[C@H](C(=O)NCC(N)=O)CSCC(=O)N[C@@H](Cc2ccc(O)cc2)C(=O)N(C)[C@@H](CCC(=O)O)C(=O)N[C@@H](CC(N)=O)C(=O)N2CCC[C@H]2C(=O)N[C@@H](Cc2cnc[nH]2)C(=O)N[C@@H](CC(C)C)C(=O)N(C)CC(=O)N[C@@H](Cc2c[nH]c3ccccc23)C(=O)N[C@@H](CO)C(=O)N[C@@H](Cc2c[nH]c3ccccc23)C(=O)N1C [Example 1189] ?
**A:** < 7.13
